Source: patent US20170073386A1

Please respond with reported EC50 (nM), human GITR transfected NF-κB luciferase gene reporter cell line for every item in the list.
experimental-system: T1, human GITR expressed on cells (human, UniProt Q9Y5U5 26-241)
T1 sequence: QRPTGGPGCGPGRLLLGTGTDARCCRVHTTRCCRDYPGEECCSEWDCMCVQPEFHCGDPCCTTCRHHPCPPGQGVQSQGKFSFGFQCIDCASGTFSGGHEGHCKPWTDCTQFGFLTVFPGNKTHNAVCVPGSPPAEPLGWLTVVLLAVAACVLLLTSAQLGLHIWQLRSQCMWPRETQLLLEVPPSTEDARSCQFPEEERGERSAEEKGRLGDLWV
procedure-summary: cell-based or functional assay
// return numeric value only (unit: nM, not printed)

Recorded result, hexameric GITRL FP (Matrilin 1 wt) (Fc fusion, not shown: a dimerising Fc or GST; small tags and cut ends) chain (part 1 of 2): CACESLVKFQAKVEGLLQALTRKLEAVSKRLAILENTVV chain (part 2 of 2): LQLETAKEPCMAKFGPLPSKWQMASSEPPCVNKVSDWKLEILQNGLYLIYGQVAPNANYNDVAPFEVRLYKNKDMIQTLTNKSKIQNVGGTYELHVGDTIDLIFNSEHQVLKNNTYWGIILLANPQFIS , EC50 (nM), human GITR transfected NF-κB luciferase gene reporter cell line: 1.12

Given item hexameric GITRL FP (DMPK wt) (Fc fusion, not shown: a dimerising Fc or GST; small tags and cut ends) chain (part 1 of 2): EAEAEVTLRELQEALEEEVLTRQSLSREMEAIRTDNQNFASQLREAEARNRDLEAHVRQLQERMELLQAE chain (part 2 of 2): LQLETAKEPCMAKFGPLPSKWQMASSEPPCVNKVSDWKLEILQNGLYLIYGQVAPNANYNDVAPFEVRLYKNKDMIQTLTNKSKIQNVGGTYELHVGDTIDLIFNSEHQVLKNNTYWGIILLANPQFIS , the value recorded as its EC50 (nM), human GITR transfected NF-κB luciferase gene reporter cell line is 1.37

In plain terms, hexameric GITRL FP (Coronin 1a variant) (Fc fusion, not shown: a dimerising Fc or GST; small tags and cut ends) chain (part 1 of 2): ISRIEEEIRKINATVQELQKRIDRLEETVQAK chain (part 2 of 2): LQLETAKEPCMAKFGPLPSKWQMASSEPPCVNKVSDWKLEILQNGLYLIYGQVAPNANYNDVAPFEVRLYKNKDMIQTLTNKSKIQNVGGTYELHVGDTIDLIFNSEHQVLKNNTYWGIILLANPQFIS has a documented EC50 (nM), human GITR transfected NF-κB luciferase gene reporter cell line of 0.74

According to the records, this binder hexameric GITRL FP (Matrilin 1 variant) (Fc fusion, not shown: a dimerising Fc or GST; small tags and cut ends) chain (part 1 of 2): CACESLVKFQAKVEGLIQALTRKLEAVSKRIAILENTVV chain (part 2 of 2): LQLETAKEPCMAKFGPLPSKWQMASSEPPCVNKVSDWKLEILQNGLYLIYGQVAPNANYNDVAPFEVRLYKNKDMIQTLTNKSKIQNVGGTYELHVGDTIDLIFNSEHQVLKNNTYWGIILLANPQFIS displays EC50 (nM), human GITR transfected NF-κB luciferase gene reporter cell line of 0.9

EC50 (nM), human GITR transfected NF-κB luciferase gene reporter cell line for hexameric GITRL FP (Langerin variant) (Fc fusion, not shown: a dimerising Fc or GST; small tags and cut ends) chain (part 1 of 2): ISALNTKIRAIQGSIENMSKLIKRQNDIIQVVS chain (part 2 of 2): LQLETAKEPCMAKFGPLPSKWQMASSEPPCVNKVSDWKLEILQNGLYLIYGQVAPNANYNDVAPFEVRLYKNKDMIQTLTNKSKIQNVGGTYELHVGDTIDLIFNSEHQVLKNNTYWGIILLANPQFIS is 0.75

The recorded EC50 (nM), human GITR transfected NF-κB luciferase gene reporter cell line for hexameric GITRL FP (Langerin wt) (Fc fusion, not shown: a dimerising Fc or GST; small tags and cut ends) chain (part 1 of 2): ASALNTKIRALQGSLENMSKLLKRQNDILQVVS chain (part 2 of 2): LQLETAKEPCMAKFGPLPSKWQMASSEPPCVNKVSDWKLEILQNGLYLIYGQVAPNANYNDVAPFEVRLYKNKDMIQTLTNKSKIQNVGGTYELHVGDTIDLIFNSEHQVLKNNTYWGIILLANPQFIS is 1.54
